# credit: patent US8742106B2

Quick reference for inhibition at 10 µM among some compounds
- Target Under Test: human orexin 2 receptors (Homo sapiens (Human))
- Sequence (O43614 whole entry): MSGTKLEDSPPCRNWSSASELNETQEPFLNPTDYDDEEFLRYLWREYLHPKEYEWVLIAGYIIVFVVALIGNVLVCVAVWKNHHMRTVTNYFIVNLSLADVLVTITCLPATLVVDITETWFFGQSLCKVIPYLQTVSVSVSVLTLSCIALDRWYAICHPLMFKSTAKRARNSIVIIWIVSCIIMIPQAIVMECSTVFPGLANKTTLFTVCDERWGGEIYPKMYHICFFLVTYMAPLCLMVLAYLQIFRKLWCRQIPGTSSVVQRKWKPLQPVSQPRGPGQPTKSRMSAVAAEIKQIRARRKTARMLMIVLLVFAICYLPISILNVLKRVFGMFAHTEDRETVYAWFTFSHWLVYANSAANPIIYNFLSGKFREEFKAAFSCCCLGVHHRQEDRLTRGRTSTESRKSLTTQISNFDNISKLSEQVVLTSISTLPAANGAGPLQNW
- Assay Name: Calcium Accumulation in Cells (FLIPR), antagonism of orexin A
- Format: cell-based
- Condition Info: measured at a concentration of 10 μM of compound; read-out: FLIPR hOx2R % inhibition value
State just the number; it will be interpreted in %.

Observe how each entry below is paired with its result.
# Compound, Target Under Test, inhibition at 10 µM / %
data = [
    ("Cc1cc(OCC(=O)NC2CCCc3c2cnn3C)nc2c1c(C1CC1)nn2C (centres unmarked) [Example 7.24]", "human orexin 2 receptors (Homo sapiens (Human))", 25),
    ("COc1ccc([C@H](C)NC(=O)COc2nc3c(cc2C)c(C2CC2)nn3C)cc1 [Example 6.76]", "human orexin 2 receptors (Homo sapiens (Human))", 34),
    ("CCn1ccc(C(C)NC(=O)COc2cc(C)c3c(C4CC4)nn(C)c3n2)n1 (centres unmarked) [Example 6.54]", "human orexin 2 receptors (Homo sapiens (Human))", 29),
    ("CC(NC(=O)COc1cc(C(F)(F)F)c2c(-c3ccccc3)nn(C)c2n1)c1ccncc1 (centres unmarked) [Example 1.31]", "human orexin 2 receptors (Homo sapiens (Human))", 40),
    ("Cc1cc(OCC(=O)NC(C)c2ccncc2)nc2c1c(-c1ccccc1)nn2C (centres unmarked) [Example 1.63]", "human orexin 2 receptors (Homo sapiens (Human))", 34),
]

COc1ccc(CNC(=O)COc2cc(C)c3c(C4CC4)nn(C)c3n2)cc1 [Example 6.67] on human orexin 2 receptors (Homo sapiens (Human)) gives inhibition at 10 µM = 40

Cc1cc(OCC(=O)NCc2ccc(Cl)nc2)nc2c1c(C1CC1)nn2C [Example 7.14] on human orexin 2 receptors (Homo sapiens (Human)) gives inhibition at 10 µM = 20

CC(NC(=O)COc1cc(C(F)(F)F)c2c(-c3ccccc3)nn(C)c2n1)c1ccccn1 (centres unmarked) [Example 1.29] on human orexin 2 receptors (Homo sapiens (Human)) gives inhibition at 10 µM = 44
